assay: Octanol/water partition coefficient, logD of the compound at pH 7.4 by shake flask method; format: physicochemical
Catalogue of compounds with associated logD
Number only, please.

COC(=O)c1c(N)c(C#N)nn1-c1cccc(OCc2ccccc2)c1    3.84

// sample `COC(=O)c1c(N)c(C#N)nn1-c1ccccc1OCc1ccccc1` , its logD was 3.69

###

assay: Cmax in po dosed mouse plasma measured after 10 mins; format: ADME, organism-based; parameters: route oral, time 10 min
METRIC_NAME: Cmax

// sample `COC(=O)c1c(N)c(C#N)nn1-c1ccccc1OCc1ccccc1` , its Cmax was 18 ng/mL

###

assay: Plasma protein binding in mouse at 1 uM incubated for 4 hrs by rapid equilibrium dialysis method; assay type: ADME, cell-free; settings: read-out: PPB (converted)
METRIC_NAME: fraction unbound at 4 h, 1 µM
Number only, please.

// sample `COC(=O)c1c(N)c(C#N)nn1-c1ccccc1OCc1ccccc1` , its fraction unbound at 4 h, 1 µM was 0.05

###

molecular target: Human immunodeficiency virus type 1 reverse transcriptase (Human immunodeficiency virus 1); assay: Inhibition of wild-type recombinant HIV-1 subtype B reverse transcriptase p66/p51 heterodimer expressed in Escherichia coli using calf thymus DNA and [3H]-deoxythymidine 5'-triphophaste as substrate measured after 15 mins by liquid scintillation counting method
pIC50: −log10 of the molar value.
METRIC_NAME: pIC50

// sample `COC(=O)c1c(N)c(C#N)nn1-c1ccccc1OCc1ccccc1` , its pIC50 was < 3.00

###

assay: Stability in CD-1 mouse plasma assessed as parent compound remaining at 1 uM measured up to 60 mins by LC-MS/MS analysis; assay type: ADME, cell-free; conditions: read-out: Stabilty
Catalogue of molecules with associated remaining at 1 h, 1 µM
State just the number; it will be interpreted in %.

COC(=O)c1c(N)c(C#N)nn1-c1ccccc1OCc1ccccc1    100

Now look at this entry.
// sample `COC(=O)c1c(N)c(C#N)nn1-c1cccc(OCc2ccccc2)c1` , its remaining at 1 h, 1 µM was 100

###

test: Cmax in iv dosed mouse plasma measured after 10 mins; type: ADME, organism-based; design: route intravenous, time 10 min
Catalogue of molecules with associated Cmax
State just the number; it will be interpreted in µg/mL.

COC(=O)c1c(N)c(C#N)nn1-c1ccccc1OCc1ccccc1    0.238

// sample `COC(=O)c1c(N)c(C#N)nn1-c1cccc(OCc2ccccc2)c1` , its Cmax was 0.241
